B1: HDV Ribozyme (parent)
chain: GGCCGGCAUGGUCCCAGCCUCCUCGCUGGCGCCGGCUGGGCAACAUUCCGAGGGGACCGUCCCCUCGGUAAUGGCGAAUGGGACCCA

# Variants of: B1
# Measurement Description: self-cleavage, relative activity (ratio to wild type); higher = more cleavage; co-transcriptional
Entries are grouped by self-cleavage into these classes: lower segment = under 0.2, middle segment = from 0.2 up to 0.7, upper segment = 0.7 and over

Examples with answers:
{"Alteration": "G39U U46C", "Assigned Class": "middle segment"}
{"Alteration": "U27C U60C", "Assigned Class": "middle segment"}

Input line: Which class does C64A G80A fall in?
Output line: middle segment

Input line: For this variant, which bin applies? G67C G80U
Output line: middle segment

Input line: // return the class label for U23A G82A
Output line: middle segment

Input line: # bin lookup: classify U23A A56C by its self-cleavage
Output line: upper segment

Input line: Which class holds A70G A87U ?
Output line: upper segment

Input line: # bin lookup: classify A42U C63U by its self-cleavage
Output line: middle segment

Input line: Tag the class for C15U A51C
Output line: upper segment

Input line: Category lookup for the variant G5U C44A
Output line: lower segment

Input line: In plain terms, what class is U12A U69A ?
Output line: middle segment

Input line: Looking at A45C G68C , which class would you pick?
Output line: middle segment

Input line: Hey, which category is C62U G80U in, do you know?
Output line: middle segment

Input line: Which band does C3G G35U fall in?
Output line: upper segment

Input line: Entry C3U C84A belongs to which category?
Output line: middle segment

Input line: Band for the recorded self-cleavage of A8U G80A ?
Output line: middle segment
